System: CCRF-CEM
method: Antiviral test was performed against HIV (LAV strain) on CEM cells using 50 tissue culture infectious units.
Format: functional
condition_summary: Homo sapiens, read-out: ID50 (the source's name)
# IC50 annotations
Your answer is read as µg/mL, so omit the unit and give the number.

// known answers, use as guide
{"compound": "Nc1ccn([C@@H]2O[C@H](CO)C[C@@H]2F)c(=O)n1", "IC50 (µg/mL)": 2.3}
{"compound": "Nc1ccn([C@@H]2O[C@H](CO)C=C2F)c(=O)n1", "IC50 (µg/mL)": 1.3}
{"compound": "Nc1ccn([C@H]2CC[C@@H](CO)O2)c(=O)n1 [ZALCITABINE]", "IC50 (µg/mL)": 0.007}

// next item, IC50 requested
stdin: What value of IC50 has been reported for the following compound? Cc1cn([C@H]2C[C@H](N=[N+]=[N-])[C@@H](CO)O2)c(=O)[nH]c1=O [ZIDOVUDINE]
stdout: 0.08

###

Test system: CCRF-CEM
method: Antiviral test was performed against HIV (LAV strain) on CEM cells using 50 tissue culture infectious units.
Assay type: functional
condition_summary: Homo sapiens, read-out: ID50 (the source's name)
experimental_endpoint: IC50

// known answers, use as guide
{"molecule": "Cc1cn([C@@H]2O[C@H](CO)C=C2F)c(=O)[nH]c1=O", "result": "> 25 µg/mL"}
{"molecule": "O=c1ccn(C2OC(CO)CC2F)c(=O)[nH]1 (centres undefined)", "result": "> 10 µg/mL"}
{"molecule": "Cc1cn([C@@H]2O[C@H](CO)[C@@H](N=[N+]=[N-])[C@H]2F)c(=O)[nH]c1=O", "result": "> 28.5 µg/mL"}

// next item, IC50 requested
stdin: What value of IC50 has been reported for the following molecule? Cc1cn([C@@H]2O[C@H](CO)C[C@H]2F)c(=O)[nH]c1=O
stdout: > 25 µg/mL
